Target: Streptavidin (Streptomyces avidinii)
Test: streptavidin binders on small-molecule microarray, primary screen, artefact control for SMM compound annotation, biophysical, 635/667 nm fluorescence (AID 1147);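 also: signal reflects streptavidin binding to arrayed compounds as a control protein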
Details: streptavidin binding, higher = more signal
Hi, to clarify the labels: Yes covers composite z-score from 0.6 upward, No covers anything below 0.6.

Q: Please check the record CN1C=C(C(=O)OCCS(C)(=O)=O)C(C(=O)OCCS(C)(=O)=O)=CC(CCCO)=CC1c1cccs1 (configuration not stated) and state if its composite z-score is at or above 0.6.
Result: No

Q: Repeat with `CO[C@H]1O[C@H](CO)[C@@H](OC(=O)Nc2ccccc2)[C@H](OC(=O)Nc2ccccc2-c2ccccc2)[C@H]1OC(=O)Nc1ccccc1-c1ccccc1`
Result: Yes

Q: Repeat with `COC(=O)C(CC#Cc1ccc2c(c1)[C@]1(C(=O)N2)[C@H](c2ccccc2OCCO)N2[C@H](c3ccccc3)[C@H](c3ccccc3)OC(=O)[C@H]2[C@@H]1C(=O)N1CCCCCCC1)C(=O)OC`
Result: Yes

Q: Repeat with `COc1ccc([Si](C)(C)[C@@H]2[C@@H](CC(=O)N3CCC[C@H]3CO)O[C@]3(C(=O)N(Cc4ccc(N5CCC5=O)cc4)c4ccccc43)[C@H]2C)cc1`
Result: Yes

Q: Repeat with CCN(CC)c1ccc(N2CC=CC34O[C@@H]5C=CCOC(=O)[C@@H]5[C@H]3C(=O)N(C(C)CO)[C@@H]4C2=O)cc1 (some centres not stated)
Result: No

Q: Repeat with C=CCC(OC(C)=O)[C@@H]1[C@@H](N(Cc2cccc3ccccc23)C(=O)c2cccc3ccccc23)c2cc(OCCCO)ccc2N1C(=O)Cc1ccc(OC)cc1 (some centres not stated)
Result: No
